# ASSAY TARGET: native, highly purified SAP2 preparation (Candida albicans, UniProt P0CS83 57-398)
# Sequence (P0CS83 57-398 limits assumed): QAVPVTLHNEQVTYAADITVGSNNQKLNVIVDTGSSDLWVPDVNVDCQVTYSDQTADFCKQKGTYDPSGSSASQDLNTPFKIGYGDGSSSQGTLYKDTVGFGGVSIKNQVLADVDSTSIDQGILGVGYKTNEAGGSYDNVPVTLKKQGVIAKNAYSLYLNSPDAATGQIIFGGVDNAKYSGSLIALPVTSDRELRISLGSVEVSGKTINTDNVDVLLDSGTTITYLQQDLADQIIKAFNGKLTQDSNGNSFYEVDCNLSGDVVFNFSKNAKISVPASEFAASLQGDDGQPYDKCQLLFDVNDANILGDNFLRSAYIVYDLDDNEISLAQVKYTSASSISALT
# PROTOCOL SUMMARY: cell-based or functional assay
binders and their reported ΔOD/ml/min (BSA degradation, proteinase enzyme assay)

ADR4-5 (other) EVQLLESGGGLVQPGGSLRLSCAASGDRISSEFMGWVRQAPGKGLEWVSAIYKPNGSTYYADSVKGRFTISRDNSKNTLYLQMNSLRAEDTAVYYCARGRARRTESTYQLRYWGQGTLVTVSS : 1 ΔOD/ml/min
ADR4-9 (other) EVQLLESGGGLVQPGGSLRLSCAASGVRLSHQVMGWVRQAPGKGLEWVSAIRSSDGSTYYADSVKGRFTISRDNSKNTLYLQMNSLRAEDTAVYYCAGWRSAKSQMHYWGQGTLVTVSS : 0.93 ΔOD/ml/min
ADR4-13 (other) EVQLLESGGGLVQPGGSLRLSCAASGFSISYKNMAWVRQAPGKGLEWVSAIKAANGSTYYADSVKGRFTISRDNSKNTLYLQMNSLRAEDTAVYYCATGSQKKRTYTFDFWGQGTLVTVSS : 0.46 ΔOD/ml/min
ADR4-6 (other) EVQLLESGGGLVQPGGSLRLSCAASGFRVSNYDLTWVRQAPGKGLEWVSTISATNGSTYYADSVKGRFTISRDNSKNTLYLQMNSLRAEDTAVYYCAAVTWWLLRHNDNLGFWGQGTLVTVSS : 0.5 ΔOD/ml/min
ADR4-11 (other) EVQLLESGGGLVQPGGSLRLSCAASGVIFTDQTMGWVRQAPGKGLEWVSAIKTRDGSTYYADSVKGRFTISRDNSKNTLYLQMNSLRAEDTAVYYCARFLRPNASRGSAREAQIHSWGQGTLVTVSS : 0.8 ΔOD/ml/min

Task: Record request: ΔOD/ml/min (BSA degradation, proteinase enzyme assay) value, item ADR4-12 (other) EVQLLESGGGLVQPGGSLRLSCAASGDTVSSKAMAWVRQAPGKGLEWVSGIFIPNGSTYYADSVKGRFTISRDNSKNTLYLQMNSLRAEDTAVYYCAAKQRAVLSRWGSSTEFGSWGQGTLVTVSS
Result: 0.6 ΔOD/ml/min

Task: Record request: ΔOD/ml/min (BSA degradation, proteinase enzyme assay) value, item ADR4-4 (other) EVQLLESGGGLVQPGGSLRLSCAASGFTFLDYQMSWVRQAPGKGLEWVSGISRSGNKTKYADSVKGRFTISRDNSKNTLYLQMNSLRAEDTAVYYCAKWAGLNRHDFDYWGQGTLVTVSS
Result: 0.76 ΔOD/ml/min

Task: Record request: ΔOD/ml/min (BSA degradation, proteinase enzyme assay) value, item ADR4-8 (other) EVQLLESGGGLVQPGGSLRLSCAASGFSLSYKVMGWVRQAPGKGLEWVSAINRENGSTYYADSVKGRFTISRDNSKNTLYLQMNSLRAEDTAVYYCAGFARRGAPHSASVEFWGQGTLVTVSS
Result: 1 ΔOD/ml/min
